# credit: patent US11267795B2

# test-protocol: Gravimetric Vapor Sorption (GVS) with XRPD re-analysis
# Type: physicochemical
# run-parameters: GVS, 25° C.
# Method: Sorption isotherms were obtained using a SMS DVS Intrinsic moisture sorption analyzer, controlled by DVS Intrinsic Control software. The sample temperature was maintained at 25° C. by the instrument controls. […] The relative humidity was measured by a calibrated Rotronic probe (dynamic range of 1.0-100% RH), located near the sample. The weight change, (mass relaxation) of the sample as a function of % RH was constantly monitored by a microbalance (accuracy ±0.005 mg). […]
Marks after values point to notes of the source that are not given here.
Here, each record is paired with measured Reversible Water Uptake between 0-90% RH data.
measured-property: Reversible Water Uptake between 0-90% RH

- Cc1cc(OC/C=C(/c2ccc(F)cc2)c2ccc(C#CCN3CCOCC3)cc2)ccc1OCC(=O)[O-].[Na+] [Pattern 9]: ~27%
- Cc1cc(OC/C=C(/c2ccc(F)cc2)c2ccc(C#CCN3CCOCC3)cc2)ccc1OCC(=O)[O-].[Na+] [Form 1]: ~13.0% †
- Cc1cc(OC/C=C(/c2ccc(F)cc2)c2ccc(C#CCN3CCOCC3)cc2)ccc1OCC(=O)[O-].[Na+] [Form 3]: ~9.0%
- Cc1cc(OC/C=C(/c2ccc(F)cc2)c2ccc(C#CCN3CCOCC3)cc2)ccc1OCC(=O)[O-].[Na+] [Form 5]: ~11%
- Cc1cc(OC/C=C(/c2ccc(F)cc2)c2ccc(C#CCN3CCOCC3)cc2)ccc1OCC(=O)[O-].[Na+] [Form 2]: ~25%
- Cc1cc(OC/C=C(/c2ccc(F)cc2)c2ccc(C#CCN3CCOCC3)cc2)ccc1OCC(=O)[O-].[Na+] [Form 4]: ~23%

---

# test-protocol: Gravimetric Vapor Sorption (GVS) with XRPD re-analysis
# Format: physicochemical
# run-parameters: after isotherm experiment at 90% RH and 25° C.
measured-property: Solid State Form After GVS (XRPD)

• Cc1cc(OC/C=C(/c2ccc(F)cc2)c2ccc(C#CCN3CCOCC3)cc2)ccc1OCC(=O)[O-].[Na+] [Form 3] = Form 1
• Cc1cc(OC/C=C(/c2ccc(F)cc2)c2ccc(C#CCN3CCOCC3)cc2)ccc1OCC(=O)[O-].[Na+] [Form 5] = Form 1

---

# tested-target: PPARδ (Homo sapiens)
# Sequence (Q03181 whole entry): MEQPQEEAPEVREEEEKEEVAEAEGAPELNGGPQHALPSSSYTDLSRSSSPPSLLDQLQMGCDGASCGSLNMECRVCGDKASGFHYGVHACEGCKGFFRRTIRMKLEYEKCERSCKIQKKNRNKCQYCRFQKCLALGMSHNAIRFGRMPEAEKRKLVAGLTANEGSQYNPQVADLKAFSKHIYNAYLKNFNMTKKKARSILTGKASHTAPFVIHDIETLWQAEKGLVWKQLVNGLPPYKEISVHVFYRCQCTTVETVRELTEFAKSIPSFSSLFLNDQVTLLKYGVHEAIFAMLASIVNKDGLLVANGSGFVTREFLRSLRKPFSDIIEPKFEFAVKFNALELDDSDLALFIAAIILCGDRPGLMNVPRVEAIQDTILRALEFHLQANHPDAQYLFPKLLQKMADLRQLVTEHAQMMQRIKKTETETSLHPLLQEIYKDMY
# test-protocol: PPAR agonist activity in human cell lines expressing the three PPAR isotypes
# run-parameters: human cell lines expressing the PPAR isotypes
measured-property: EC50

• Cc1cc(OC/C=C(/c2ccc(F)cc2)c2ccc(C#CCN3CCOCC3)cc2)ccc1OCC(=O)O [Compound I] = < 100 nM

---

# tested-target: PPARα (Homo sapiens)
# Sequence (Q07869 1-468): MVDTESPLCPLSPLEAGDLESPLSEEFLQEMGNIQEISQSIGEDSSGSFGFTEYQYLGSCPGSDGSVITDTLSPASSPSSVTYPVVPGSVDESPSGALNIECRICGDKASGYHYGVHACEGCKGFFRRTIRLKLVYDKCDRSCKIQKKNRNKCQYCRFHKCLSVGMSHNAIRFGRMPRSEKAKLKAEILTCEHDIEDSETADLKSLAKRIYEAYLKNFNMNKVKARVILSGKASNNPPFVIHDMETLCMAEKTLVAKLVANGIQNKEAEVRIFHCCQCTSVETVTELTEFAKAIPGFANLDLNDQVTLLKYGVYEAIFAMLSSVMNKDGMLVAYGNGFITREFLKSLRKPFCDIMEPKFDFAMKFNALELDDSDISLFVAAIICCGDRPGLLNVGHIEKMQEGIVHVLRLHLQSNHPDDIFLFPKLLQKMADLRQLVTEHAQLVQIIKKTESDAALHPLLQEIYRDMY
# test-protocol: PPAR agonist activity in human cell lines expressing the three PPAR isotypes
# run-parameters: human cell lines expressing the PPAR isotypes
# Description: Compound I is a PPARS agonist that is useful in the methods of treatment described herein. In human cell lines expressing the three peroxisome proliferator-activated receptor (PPAR) isotypes, Compound I is a potent (EC50<100 nM) and selective human PPARS agonist (PPARα (EC50>10 μM) and PPARγ (EC50>10 μM)).
measured-property: EC50

- Cc1cc(OC/C=C(/c2ccc(F)cc2)c2ccc(C#CCN3CCOCC3)cc2)ccc1OCC(=O)O: > 10 µM
